Ki or IC50 activity class reference
Target system: human H4 receptor (Homo sapiens)
Construct: expressed in transfected cells
Sequence (Q9H3N8 whole entry): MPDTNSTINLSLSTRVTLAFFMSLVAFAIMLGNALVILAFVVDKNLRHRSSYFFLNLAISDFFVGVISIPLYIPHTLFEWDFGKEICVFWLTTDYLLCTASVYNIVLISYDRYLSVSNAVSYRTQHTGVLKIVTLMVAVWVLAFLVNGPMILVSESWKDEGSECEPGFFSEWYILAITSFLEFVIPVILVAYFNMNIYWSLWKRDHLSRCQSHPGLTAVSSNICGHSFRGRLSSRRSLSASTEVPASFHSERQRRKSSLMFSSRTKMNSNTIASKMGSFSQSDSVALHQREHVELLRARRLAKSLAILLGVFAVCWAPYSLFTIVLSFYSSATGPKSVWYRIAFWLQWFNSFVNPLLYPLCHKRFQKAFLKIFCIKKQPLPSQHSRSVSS
Experimental protocol: [3H]Histamine binding on membranes of CHO cells stably expressing human H4 receptor

Examples from the recorded data:
1) CN1CCC(OC(c2ccc(OC(F)(F)F)cc2)c2nc3ccccc3s2)CC1 (centres unmarked) ... < 1000 nM
2) CC(C)CCOc1cccc(C(NC2CCN(C)CC2)c2nc3ccccc3[nH]2)c1 (centres unmarked) ... < 300 nM
3) CN1CCC(OC(c2cccc(-c3ccccc3)c2)c2nc3ccccc3[nH]2)CC1 (centres unmarked) ... < 300 nM
4) Cc1cc(C(NC2CCN(C)CC2)c2nc3ccccc3s2)ccc1F (centres unmarked) ... < 1000 nM
5) CN1CCC(OC(c2cc(C(F)(F)F)cc(C(F)(F)F)c2)c2nc3ccccc3[nH]2)CC1 (centres unmarked) ... < 1000 nM

Q: Query (compound): CN1CCC(OC(c2cccc(OCCCCn3cncn3)c2)c2nc3ccccc3s2)CC1 (centres unmarked) ; field requested: Ki or IC50 activity class
Result: < 300 nM

Q: # get_value(readout='Ki or IC50 activity class', item= CN1CCC(OC(c2cccc(C#CCNC(=N)N)c2)c2nc3ccccc3s2)CC1 (centres unmarked) )
Result: < 30 nM

Q: GET /values?readout=Ki or IC50 activity class&item= CN1CCC(OC(c2ccc3c(c2)OCCO3)c2nc3ccccc3[nH]2)CC1 (centres unmarked)
Result: < 300 nM
